target: Procathepsin L (Homo sapiens, UniProt P07711)
Sequence (P07711 whole entry): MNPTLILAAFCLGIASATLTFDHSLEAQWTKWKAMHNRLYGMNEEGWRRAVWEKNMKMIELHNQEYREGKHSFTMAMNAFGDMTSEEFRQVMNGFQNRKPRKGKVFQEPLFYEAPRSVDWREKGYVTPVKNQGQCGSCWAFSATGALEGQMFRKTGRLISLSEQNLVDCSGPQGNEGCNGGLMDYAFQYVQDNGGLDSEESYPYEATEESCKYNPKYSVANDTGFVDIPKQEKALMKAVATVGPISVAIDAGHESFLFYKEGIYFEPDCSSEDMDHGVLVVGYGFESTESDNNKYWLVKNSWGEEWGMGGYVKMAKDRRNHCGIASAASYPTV
pKi: −log10 of the molar value.

>  <lineNotation>
CC(C)Cc1ccc(-c2ccccc2OCC=O)c(F)c1F

>  <pKi>
< 4.82

$$$$

---

Quick reference: Ki of the listed items.
Molecular target: Cathepsin K (Homo sapiens, UniProt P43235)
Sequence (P43235 whole entry): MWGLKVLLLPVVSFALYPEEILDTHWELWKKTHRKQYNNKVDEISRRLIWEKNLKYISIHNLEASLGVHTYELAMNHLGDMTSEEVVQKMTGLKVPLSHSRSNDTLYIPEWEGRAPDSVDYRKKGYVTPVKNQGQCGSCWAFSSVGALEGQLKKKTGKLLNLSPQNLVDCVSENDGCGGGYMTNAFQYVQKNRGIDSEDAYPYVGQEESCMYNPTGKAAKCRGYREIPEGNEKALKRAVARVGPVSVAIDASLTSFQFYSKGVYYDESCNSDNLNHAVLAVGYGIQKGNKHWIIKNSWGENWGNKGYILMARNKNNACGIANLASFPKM
recordedMetric: Ki (nM)

>  <lineNotation>
O=CCOc1ccccc1-c1ccc(F)c(F)c1F

>  <observedValue>
1510

$$$$
>  <lineNotation>
CCCc1ccc(-c2ccccc2OCC=O)c(F)c1F

>  <observedValue>
1280

$$$$
>  <lineNotation>
CC(C)Cc1ccc(-c2ccccc2OCC=O)c(F)c1F

>  <observedValue>
1240

$$$$

---

Each entry below carries its measured Ki, system: UniProt:P07858.

>  <lineNotation>
CCCc1ccc(-c2ccccc2OCC=O)c(F)c1F

>  <Ki>
> 15 µM

$$$$
>  <lineNotation>
CC(C)Cc1ccc(-c2ccccc2OCC=O)c(F)c1F

>  <Ki>
> 15 µM

$$$$
>  <lineNotation>
O=CCOc1ccccc1-c1ccc(F)c(F)c1F

>  <Ki>
> 15 µM

$$$$

---

Each entry below carries its measured Ki, system: Cathepsin S (Homo sapiens).
Sequence (P25774 whole entry): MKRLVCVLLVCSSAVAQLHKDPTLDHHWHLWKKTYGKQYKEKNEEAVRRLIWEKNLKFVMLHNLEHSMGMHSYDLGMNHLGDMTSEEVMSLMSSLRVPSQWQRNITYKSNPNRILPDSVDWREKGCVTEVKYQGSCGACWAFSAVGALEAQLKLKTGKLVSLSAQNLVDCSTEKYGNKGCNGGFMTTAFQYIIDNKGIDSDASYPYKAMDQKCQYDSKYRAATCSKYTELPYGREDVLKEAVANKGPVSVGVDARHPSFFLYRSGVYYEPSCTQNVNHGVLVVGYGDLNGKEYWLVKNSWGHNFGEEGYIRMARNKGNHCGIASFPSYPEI

>  <lineNotation>
CC(C)Cc1ccc(-c2ccccc2OCC=O)c(F)c1F

>  <resultUnit>
nM

>  <Ki>
9.6

$$$$
>  <lineNotation>
CCCc1ccc(-c2ccccc2OCC=O)c(F)c1F

>  <resultUnit>
nM

>  <Ki>
48.7

$$$$
